# Test system: guinea pig Dopamine Transporter (DAT), gene 100714898
# ASSAY INFO: NVS_TR_gDAT: NovaScreen (NVS) Transporter Assay for guinea pig Dopamine Transporter (DAT) (AID 2283369);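 further: active compounds lower bound radioligand signal relative to DMSO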
Results filed as inconclusive are left out. Calls of active or inactive are those of the source. How the source made its calls: active means hit-call score of the fitted dose curve at least 0.9, where 1 is the maximum; inconclusive means response in the unintended direction; inactive means score below 0.9.
Kindly state AC50 for each of the entries shown.

q: What does the record list as AC50 for CCOc1cccc(-n2cc(C(=O)N3CCN(c4cc(C(=O)O)c5ccccc5c4)CC3)nc2-c2ccc(C)cc2)c1 ?
a: 23.8 µM (active)

q: I have this compound here, O=C(O)CC(O)C(=O)O (stereo not drawn) , and I need its recorded AC50.
a: 5.6 µM (active)

q: Requested read-out: AC50. Entry: CCc1cc(SCc2sc(-c3ccc(C(F)(F)F)cc3)nc2CN2CCN(c3ccc(OC)cc3)CC2)ccc1OCC(=O)O
a: 15.2 µM (active)

q: What does the record list as AC50 for CCOC(=O)COc1ccc2c(c1)CC(NCC(O)c1cccc(Cl)c1)CC2 (stereo not drawn) ?
a: 10.6 µM (active)

q: # query: AC50 of entry COc1cccc(-c2ccc(/C=C\CN3CCCCCC3)cc2Cl)c1
a: 14.5 µM (active)

q: Recorded AC50 of CN(C)c1ccc(N=NS(=O)(=O)O)cc1 , please.
a: 27.1 µM (active)

q: So what's the measured AC50 for this one? O=c1[nH]c2ccc(S(=O)CCN3CCC(Cc4ccc(F)cc4)CC3)cc2o1 (stereo not drawn)
a: 6.75 µM (active)

###

# ASSAY INFO: ATG_M_61_CIS: Attagene CIS-FACTORIAL HepG2 Assay for M61 Transcription Factor (Internal Marker) (AID 2282937)
# CONDITION SUMMARY: HepG2 Attagene CIS-FACTORIAL M61 internal marker reporter; actives raise or lower the signal
Activity calls are given as the source filed them. The calls were made as follows: active = hit-call score of the fitted dose curve at least 0.9, where 1 is the maximum; inactive = score below 0.9.
PARAMETER MEASURED: outcome

// below: answered compounds
CC(C)CC(C)(O)C#CC(C)(O)CC(C)C (configuration not stated) : inactive
O=P(OC(CCl)CCl)(OC(CCl)CCl)OC(CCl)CCl : inactive
CCN(C(=O)c1cc(C)cc(OC[C@H](C)Nc2ccncc2)c1)C(C)C : inactive
C1N2CN3CN1CN(C2)C3 : inactive
CC[C@H]1CC[C@H](NCc2cc3c(cc2OC)[C@H]2C[C@H]2C(=O)N3C)[C@H](c2ccccc2)N1 : inactive

q: # input compound: COCCOc1cc2cc(C(=O)NC3CCN(C(C)C)CC3)n(CC(=O)Nc3ccc(Cl)cn3)c2cn1 ; wanted: its outcome
a: inactive

q: Which value of outcome has been reported for Cc1c(-c2cccnc2)c2ccccc2n1CCCCC(=O)O in the records?
a: inactive

q: Request the reported outcome associated with C1=CCCC=CCCC=CCC1
a: inactive

q: Record request: outcome value, item COc1ccc2sc(C(=O)Nc3nnn[nH]3)c(OC(C)C)c2c1
a: inactive

q: Suppose we examine the compound CC(C)=CCCC(C)=CC=O ; what outcome value has been reported?
a: inactive

q: Need outcome, item CC(O)CN(CCN(CC(C)O)CC(C)O)CC(C)O (configuration not stated)
a: inactive

q: Given the compound Cc1ccc(S(=O)(=O)O)cc1C , what is its reported outcome?
a: inactive

###

# Read-out: Urokinase-type plasminogen activator receptor (uPAR), PLAUR (gene 5329)
# ASSAY INFO: BSK_4H_uPAR: BioMAP Diversity Plus: 4H Assay for Urokinase-type plasminogen activator receptor (uPAR) Biomarker Activity (AID 2283030)
# CONDITION SUMMARY: primary human endothelial cells (HUVEC); actives raise or lower the signal
The source made the active and inactive calls. The calls were made as follows: active = hit-call score of the fitted dose curve at least 0.9, where 1 is the maximum; inactive = score below 0.9.
PARAMETER MEASURED: AC50

Cc1c(-c2cccnc2)c2ccccc2n1CCCCC(=O)O : inactive
O=C(O)CCN(C1(C(=O)NO)CCCC1)S(=O)(=O)c1ccc(Oc2ccc(F)cc2)cc1 : inactive
Cn1cnc([N+](=O)[O-])c1Sc1ncnc2nc[nH]c12 : inactive
CC(C)CC(C)(O)C#CC(C)(O)CC(C)C (stereo not drawn) : inactive

q: I'd like to know its AC50. The compound in question is CC[C@H]1CC[C@H](NCc2cc3c(cc2OC)[C@H]2C[C@H]2C(=O)N3C)[C@H](c2ccccc2)N1
a: inactive

q: May I ask what AC50 has been recorded for CCNc1ccccc1 ?
a: inactive

q: Fill in the blank: the reported AC50 of NC(=O)NO is ____.
a: inactive

q: # input compound: CCCCC(CC)COC(=O)CCCCCCCCC(=O)OCC(CC)CCCC (stereo not drawn) ; wanted: its AC50
a: inactive

q: Given the compound CC(O)CN(CCN(CC(C)O)CC(C)O)CC(C)O (stereo not drawn) , what is its reported AC50?
a: inactive

q: Using the record for COC(=O)CC(=O)OC , report its AC50.
a: inactive

q: I have this compound here, CC(=O)OC[C@H]1O[C@@](COC(C)=O)(O[C@H]2O[C@H](COC(C)=O)[C@@H](OC(C)=O)[C@H](OC(C)=O)[C@H]2OC(C)=O)[C@@H](OC(C)=O)[C@@H]1OC(C)=O , and I need its recorded AC50.
a: inactive

q: Value lookup for AC50; key = CC(C)=CCC/C(C)=C/CO
a: inactive

q: Please report the recorded AC50 for CCC(C)(C)C(=O)O[C@H]1C[C@@H](C)C=C2C=C[C@H](C)[C@H](CC[C@@H]3C[C@@H](O)CC(=O)O3)[C@H]21 .
a: 20 µM (active)
